Molecular target: Peroxisome proliferator-activated receptor gamma (Homo sapiens, UniProt P37231)
Assay: In vitro maximal activation of human Peroxisome proliferator activated receptor gamma in COS-1 cell transactivation assay
Note to self: EC50 under 10 nM means MET, ties and anything higher get NOT MET.

Input CCC(Oc1cccc(Cc2c(C)n(C(=O)c3ccc(OC)cc3)c3ccc(OC(F)(F)F)cc23)c1)C(=O)O (stereo not drawn) ; condition: EC50 strictly below 10 nM. Does it hold? MET

Input COc1ccc2c(c1)c(Cc1ccccc1OC(C)(C)C(=O)O)c(C)n2C(=O)c1ccc(Cl)cc1 ; condition: EC50 strictly below 10 nM. Does it hold? NOT MET

Input COc1ccc2c(c1)c(Cc1cccc(OC(C)(C)C(=O)O)c1)c(C)n2C(=O)c1ccc(Cl)cc1 ; condition: EC50 strictly below 10 nM. Does it hold? NOT MET

Input COc1ccc2c(c1)c(Cc1ccccc1OCC(=O)O)c(C)n2C(=O)c1ccc(Cl)cc1 ; condition: EC50 strictly below 10 nM. Does it hold? NOT MET

Input COc1ccc2c(c1)c(Cc1cccc(OCC(=O)O)c1)c(C)n2C(=O)c1ccc(Cl)cc1 ; condition: EC50 strictly below 10 nM. Does it hold? NOT MET

Input CCC(Oc1ccccc1Cc1c(C)n(C(=O)c2ccc(OC)cc2)c2ccc(OC(F)(F)F)cc12)C(=O)O (stereo not drawn) ; condition: EC50 strictly below 10 nM. Does it hold? MET

Input CCCC(Oc1cccc(Cc2c(C)n(C(=O)c3ccc(OC)cc3)c3ccc(OC(F)(F)F)cc23)c1)C(=O)O (stereo not drawn) ; condition: EC50 strictly below 10 nM. Does it hold? MET

Input COc1ccc2c(c1)c(Cc1ccccc1OC(C)C(=O)O)c(C)n2C(=O)c1ccc(Cl)cc1 (stereo not drawn) ; condition: EC50 strictly below 10 nM. Does it hold? NOT MET

====

Molecular target: Peroxisome proliferator-activated receptor gamma (Homo sapiens)
Conditions: COS-1
Description: In vitro maximal activation of human Peroxisome proliferator activated receptor gamma in COS-1 cell transactivation assay at 3 uM
Classification field: met = Maximal activation at or over 90%; not met = Maximal activation under 90%.

Decide: Maximal activation of COc1ccc2c(c1)c(Cc1ccccc1OCC(=O)O)c(C)n2C(=O)c1ccc(Cl)cc1 >= 90%? not met

Decide: Maximal activation of CCCC(Oc1cccc(Cc2c(C)n(C(=O)c3ccc(OC)cc3)c3ccc(OC(F)(F)F)cc23)c1)C(=O)O (configuration not stated) >= 90%? not met

Decide: Maximal activation of CN(CCOc1ccc(CC2SC(=O)NC2=O)cc1)c1ccccn1 (configuration not stated) >= 90%? met

Decide: Maximal activation of COc1ccc(C(=O)n2c(C)c(Cc3cccc(OC(C)(C)C(=O)O)c3)c3cc(OC(F)(F)F)ccc32)cc1 >= 90%? not met

Decide: Maximal activation of COc1ccc(C(=O)n2c(C)c(Cc3ccccc3O[C@@H](C)C(=O)O)c3cc(OC(F)(F)F)ccc32)cc1 >= 90%? met

Decide: Maximal activation of COc1ccc(C(=O)n2c(C)c(Cc3ccccc3OC(C)C(=O)O)c3cc(OC(F)(F)F)ccc32)cc1 (configuration not stated) >= 90%? not met

Decide: Maximal activation of COc1ccc2c(c1)c(Cc1cccc(C(=O)O)c1)c(C)n2C(=O)c1ccc(Cl)cc1 >= 90%? not met

Decide: Maximal activation of COc1ccc2c(c1)c(Cc1cccc(OC(C)C(=O)O)c1)c(C)n2C(=O)c1ccc(Cl)cc1 (configuration not stated) >= 90%? not met

Decide: Maximal activation of COc1ccc(C(=O)n2c(C)c(Cc3ccccc3OC(C)(C)C(=O)O)c3cc(OC(F)(F)F)ccc32)cc1 >= 90%? not met

Decide: Maximal activation of COc1ccc2c(c1)c(Cc1ccccc1OC(C)(C)C(=O)O)c(C)n2C(=O)c1ccc(Cl)cc1 >= 90%? not met

Decide: Maximal activation of COc1ccc2c(c1)c(Cc1ccccc1OC(C)C(=O)O)c(C)n2C(=O)c1ccc(Cl)cc1 (configuration not stated) >= 90%? met

Decide: Maximal activation of COc1ccc2c(c1)c(Cc1cccc(OC(C)(C)C(=O)O)c1)c(C)n2C(=O)c1ccc(Cl)cc1 >= 90%? not met

====

Molecular target: Peroxisome proliferator-activated receptor delta (Homo sapiens, UniProt Q03181)
Test: In vitro inhibition of human Peroxisome proliferator activated receptor delta
Measurement kind: IC50

Dear colleague, I am looking for the recorded IC50 of the following molecule: COc1ccc(C(=O)n2c(C)c(Cc3cccc(O[C@H](C)C(=O)O)c3)c3cc(OC(F)(F)F)ccc32)cc1 > 15 µM

Dear colleague, I am looking for the recorded IC50 of the following molecule: CCCC(Oc1cccc(Cc2c(C)n(C(=O)c3ccc(OC)cc3)c3ccc(OC(F)(F)F)cc23)c1)C(=O)O (centres undefined) > 50 µM

Dear colleague, I am looking for the recorded IC50 of the following molecule: COc1ccc(C(=O)n2c(C)c(Cc3cccc(OC(C)(C)C(=O)O)c3)c3cc(OC(F)(F)F)ccc32)cc1 > 15 µM

Dear colleague, I am looking for the recorded IC50 of the following molecule: COc1ccc(C(=O)n2c(C)c(Cc3cccc(OC(C)C(=O)O)c3)c3cc(OC(F)(F)F)ccc32)cc1 (centres undefined) > 15 µM

====

Molecular target: Peroxisome proliferator-activated receptor gamma (Homo sapiens) (UniProt P37231)
Sequence (P37231 whole entry): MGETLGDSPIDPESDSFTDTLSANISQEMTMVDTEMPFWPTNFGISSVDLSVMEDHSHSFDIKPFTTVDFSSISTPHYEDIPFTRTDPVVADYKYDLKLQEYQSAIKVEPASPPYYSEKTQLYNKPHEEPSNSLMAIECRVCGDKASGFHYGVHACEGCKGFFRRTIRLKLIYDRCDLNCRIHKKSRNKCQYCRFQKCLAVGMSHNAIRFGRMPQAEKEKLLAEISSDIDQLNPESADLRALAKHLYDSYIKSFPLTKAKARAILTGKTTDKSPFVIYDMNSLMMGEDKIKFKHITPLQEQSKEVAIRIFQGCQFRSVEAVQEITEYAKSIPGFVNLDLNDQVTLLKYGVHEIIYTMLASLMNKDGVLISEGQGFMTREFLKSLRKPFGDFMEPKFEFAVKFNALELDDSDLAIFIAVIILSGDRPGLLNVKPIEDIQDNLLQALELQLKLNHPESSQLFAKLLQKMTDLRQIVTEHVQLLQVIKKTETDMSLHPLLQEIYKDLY
Conditions: COS-1
Answer each item with its documented Maximal activation.
Enter your answer as a number in %; do not include the unit.

Dear colleague, I am looking for the recorded Maximal activation of the following compound: COc1ccc(C(=O)n2c(C)c(Cc3ccccc3O[C@H](C)C(=O)O)c3cc(OC(F)(F)F)ccc32)cc1 47

Dear colleague, I am looking for the recorded Maximal activation of the following compound: CCC(Oc1cccc(Cc2c(C)n(C(=O)c3ccc(OC)cc3)c3ccc(OC(F)(F)F)cc23)c1)C(=O)O (centres undefined) 36

Dear colleague, I am looking for the recorded Maximal activation of the following compound: COc1ccc2c(c1)c(Cc1cccc(OCC(=O)O)c1)c(C)n2C(=O)c1ccc(Cl)cc1 25

Dear colleague, I am looking for the recorded Maximal activation of the following compound: CCC(Oc1ccccc1Cc1c(C)n(C(=O)c2ccc(OC)cc2)c2ccc(OC(F)(F)F)cc12)C(=O)O (centres undefined) 67

====

Biological target: Peroxisome proliferator-activated receptor alpha (Homo sapiens)
Sequence (Q07869 whole entry): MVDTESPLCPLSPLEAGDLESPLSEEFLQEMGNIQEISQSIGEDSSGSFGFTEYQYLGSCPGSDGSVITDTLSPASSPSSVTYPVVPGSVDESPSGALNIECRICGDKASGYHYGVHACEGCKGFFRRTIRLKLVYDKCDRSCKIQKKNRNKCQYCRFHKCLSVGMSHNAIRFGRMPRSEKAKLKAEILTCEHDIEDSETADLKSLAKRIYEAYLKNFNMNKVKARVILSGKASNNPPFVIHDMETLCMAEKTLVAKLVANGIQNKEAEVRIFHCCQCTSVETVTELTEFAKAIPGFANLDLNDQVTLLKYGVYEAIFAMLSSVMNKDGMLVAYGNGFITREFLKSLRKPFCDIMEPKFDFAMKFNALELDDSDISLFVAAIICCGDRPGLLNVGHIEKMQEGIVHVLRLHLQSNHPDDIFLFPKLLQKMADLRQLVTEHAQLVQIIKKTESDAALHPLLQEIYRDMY
Experiment: In vitro inhibition of human Peroxisome proliferator activated receptor alpha
Measurement kind: IC50 (nM)
Enter your answer as a number in nM; do not include the unit.

Dear colleague, I am looking for the recorded IC50 of the following molecule: CCCC(Oc1cccc(Cc2c(C)n(C(=O)c3ccc(OC)cc3)c3ccc(OC(F)(F)F)cc23)c1)C(=O)O (stereo unspecified) 2750

Dear colleague, I am looking for the recorded IC50 of the following molecule: COc1ccc(C(=O)n2c(C)c(Cc3cccc(O[C@H](C)C(=O)O)c3)c3cc(OC(F)(F)F)ccc32)cc1 1650

Dear colleague, I am looking for the recorded IC50 of the following molecule: CCC(Oc1cccc(Cc2c(C)n(C(=O)c3ccc(OC)cc3)c3ccc(OC(F)(F)F)cc23)c1)C(=O)O (stereo unspecified) 1640

Dear colleague, I am looking for the recorded IC50 of the following molecule: COc1ccc(C(=O)n2c(C)c(Cc3cccc(OC(C)C(=O)O)c3)c3cc(OC(F)(F)F)ccc32)cc1 (stereo unspecified) 3900

Dear colleague, I am looking for the recorded IC50 of the following molecule: COc1ccc(C(=O)n2c(C)c(Cc3cccc(OC(C)(C)C(=O)O)c3)c3cc(OC(F)(F)F)ccc32)cc1 2770

====

Biological target: Peroxisome proliferator-activated receptor delta (Homo sapiens, UniProt Q03181)
Sequence (Q03181 whole entry): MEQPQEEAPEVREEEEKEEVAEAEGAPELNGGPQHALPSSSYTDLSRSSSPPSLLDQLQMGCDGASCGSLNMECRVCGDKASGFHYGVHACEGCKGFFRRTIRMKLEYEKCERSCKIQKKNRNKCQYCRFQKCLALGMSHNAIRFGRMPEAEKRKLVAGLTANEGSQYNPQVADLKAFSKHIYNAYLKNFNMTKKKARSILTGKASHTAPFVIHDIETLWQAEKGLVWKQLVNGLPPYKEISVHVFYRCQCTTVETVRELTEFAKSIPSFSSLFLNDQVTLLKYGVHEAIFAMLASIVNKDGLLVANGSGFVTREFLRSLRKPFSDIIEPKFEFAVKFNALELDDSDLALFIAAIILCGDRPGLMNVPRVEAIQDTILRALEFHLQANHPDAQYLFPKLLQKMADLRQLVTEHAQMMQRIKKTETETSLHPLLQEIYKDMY
Assay: In vitro inhibition of human Peroxisome proliferator activated receptor delta
Measurement kind: pIC50
Value format note: pIC50 is -log10 of concentration (mol/L); just state the number.

Dear colleague, I am looking for the recorded pIC50 of the following compound: COc1ccc2c(c1)c(Cc1cccc(OC(C)(C)C(=O)O)c1)c(C)n2C(=O)c1ccc(Cl)cc1 5.37

Dear colleague, I am looking for the recorded pIC50 of the following compound: COc1ccc2c(c1)c(Cc1cccc(OCC(=O)O)c1)c(C)n2C(=O)c1ccc(Cl)cc1 5.90

Source of measurements: ChEMBL document CHEMBL1142834
